// reported Caspase-9 ± SE for each item listed
Tested on: caspase-9
Experiment: Caspase-9 expression level in HepG-2 cells
Type: cell-based, human
Settings: HepG-2, at IC50 concentrations; control 11.01
assay-endpoint: Caspase-9 ± SE (ng/L)

{"compound-smiles": "O=C(Cn1cnc2cc([N+](=O)[O-])ccc2c1=O)Nc1ccc(Cl)cc1", "assay-target": "caspase-9", "measured-result": 70.03}
{"compound-smiles": "O=C(Cn1cnc2cc(Cl)ccc2c1=O)Nc1ccccc1", "assay-target": "caspase-9", "measured-result": 74.01}
{"compound-smiles": "O=C(Cn1cnc2cc(Cl)ccc2c1=O)Nc1ccc(F)c(Cl)c1", "assay-target": "caspase-9", "measured-result": 48.44}
{"compound-smiles": "O=C(Cn1cnc2cc([N+](=O)[O-])ccc2c1=O)Nc1ccccc1Cl", "assay-target": "caspase-9", "measured-result": 7.31}
{"compound-smiles": "O=C(Cn1cnc2cc(Cl)ccc2c1=O)Nc1ccccc1Cl", "assay-target": "caspase-9", "measured-result": 83.31}
